- System: Cellular tumor antigen p53 (Homo sapiens), P04637 [UNDEFINED MUTATION]
- Sequence (P04637 whole entry, looked up, change not shown): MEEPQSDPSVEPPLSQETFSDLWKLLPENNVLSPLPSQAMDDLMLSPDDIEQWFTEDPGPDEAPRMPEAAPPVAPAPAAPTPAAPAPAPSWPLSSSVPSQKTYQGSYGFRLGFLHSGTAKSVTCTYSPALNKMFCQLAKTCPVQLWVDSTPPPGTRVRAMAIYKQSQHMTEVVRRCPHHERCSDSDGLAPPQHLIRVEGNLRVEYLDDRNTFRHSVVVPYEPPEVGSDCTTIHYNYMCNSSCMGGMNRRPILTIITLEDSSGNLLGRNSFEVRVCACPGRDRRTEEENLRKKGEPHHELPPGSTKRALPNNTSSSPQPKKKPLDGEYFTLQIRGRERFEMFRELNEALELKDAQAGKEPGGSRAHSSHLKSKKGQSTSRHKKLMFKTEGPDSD
- Test Method Notes: Induction of p53 mutant-dependent growth suppression of human […] cells
Active and inactive are the calls of the source. The rule behind the calls is not given here.
Assay Endpoint: Activity

Worked cases, Activity given:
{"Compound Structure String": "CCCCC[C@H](O[C@@H]1O[C@@H]([C@H](O)CO)[C@H](O)[C@H]1OC(C)=O)c1c(O)cc2c(c1O)C(=O)c1c(O)cc(O)cc1C2=O", "Activity": "Active"}
{"Compound Structure String": "O=C1c2cc(O[C@@H]3O[C@@H]([C@H](O)CO)[C@H](O)[C@H]3O)cc(O)c2C(=O)c2c1cc1c(c2O)[C@@H]2CCO[C@@H]2O1", "Activity": "Active"}
{"Compound Structure String": "CCCCC[C@H](O[C@@H]1O[C@@H]([C@H](O)CO)[C@H](O)[C@H]1O)c1c(O)cc2c(c1O)C(=O)c1c(O)cc(O)cc1C2=O", "Activity": "Active"}
{"Compound Structure String": "CCCCC[C@H](O)c1c(O[C@@H]2O[C@@H]([C@H](O)CO)[C@H](O)[C@H]2O)cc2c(c1O)C(=O)c1c(O)cc(O)cc1C2=O", "Activity": "Active"}

Attention now shifts to the item below.
Kindly indicate its recorded Activity. Item: CC(=O)CCC[C@H](O[C@@H]1O[C@@H]([C@H](O)CO)[C@H](O)[C@H]1O)c1c(O)cc2c(c1O)C(=O)c1c(O)cc(O)cc1C2=O
Active
